protocol.notes: 5-[^123I]IA SPECT of the living human brain, VOI kinetic analysis
Assay type: in vivo, Humans (Homo sapiens)
details: human, parietal lobe, intravenous, 8.8 mCi, Distribution volume (DV); subject 4; bolus
assay.endpoint: Kp
One number for each entry.

Kp reported for this compound [123I]c1cncc(OC[C@@H]2CCN2)c1 [5-[^123I]IA] : 5.17
